Molecular target: Tyrosine-protein kinase JAK1 (Homo sapiens) (UniProt P23458)
Sequence (P23458 whole entry): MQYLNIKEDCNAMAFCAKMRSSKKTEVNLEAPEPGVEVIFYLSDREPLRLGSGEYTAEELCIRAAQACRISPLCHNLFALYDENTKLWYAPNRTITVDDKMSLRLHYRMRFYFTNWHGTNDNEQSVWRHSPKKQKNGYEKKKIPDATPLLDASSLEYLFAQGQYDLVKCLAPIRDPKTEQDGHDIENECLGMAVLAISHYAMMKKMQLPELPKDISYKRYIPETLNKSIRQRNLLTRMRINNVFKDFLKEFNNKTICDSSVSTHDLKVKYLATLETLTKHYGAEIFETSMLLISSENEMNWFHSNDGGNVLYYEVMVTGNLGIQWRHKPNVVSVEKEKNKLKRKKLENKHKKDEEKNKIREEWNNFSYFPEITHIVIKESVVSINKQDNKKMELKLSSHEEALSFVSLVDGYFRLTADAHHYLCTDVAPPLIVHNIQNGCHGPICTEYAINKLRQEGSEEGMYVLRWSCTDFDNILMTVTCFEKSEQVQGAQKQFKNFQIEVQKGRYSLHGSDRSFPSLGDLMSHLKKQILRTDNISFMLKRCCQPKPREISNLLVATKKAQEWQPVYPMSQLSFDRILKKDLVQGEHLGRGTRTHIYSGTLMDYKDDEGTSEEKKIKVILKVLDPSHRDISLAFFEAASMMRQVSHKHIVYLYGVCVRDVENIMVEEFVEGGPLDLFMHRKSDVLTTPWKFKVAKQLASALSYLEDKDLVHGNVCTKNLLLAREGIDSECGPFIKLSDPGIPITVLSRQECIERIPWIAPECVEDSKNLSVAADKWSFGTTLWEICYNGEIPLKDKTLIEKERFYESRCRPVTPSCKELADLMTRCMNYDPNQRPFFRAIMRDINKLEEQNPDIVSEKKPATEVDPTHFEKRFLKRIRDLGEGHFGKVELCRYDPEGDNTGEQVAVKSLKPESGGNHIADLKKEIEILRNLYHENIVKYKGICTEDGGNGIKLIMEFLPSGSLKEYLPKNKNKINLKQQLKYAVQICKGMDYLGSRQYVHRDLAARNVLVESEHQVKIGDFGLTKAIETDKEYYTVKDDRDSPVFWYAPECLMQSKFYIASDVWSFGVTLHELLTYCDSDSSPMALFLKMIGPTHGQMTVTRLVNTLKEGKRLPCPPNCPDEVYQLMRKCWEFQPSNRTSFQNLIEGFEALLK
Conditions: at 1 µM
READOUT: inhibition (%)
Give the number; % is assumed, so skip it.

Worked examples follow.
[
  {
    "MOLECULAR_STRING": "NC(=O)c1ccc(-c2nc(-c3ccccn3)c(-c3ccc4c(c3)OCO4)[nH]2)cc1",
    "VALUE_OBSERVED": 8.87
  },
  {
    "MOLECULAR_STRING": "Cn1cc(C=C2C(=O)Nc3cccnc32)c2ccccc21",
    "VALUE_OBSERVED": -6.11
  },
  {
    "MOLECULAR_STRING": "O=C1NC(=O)C(c2ccc(Cl)cc2)=C1Nc1ccc(Cl)c(C(=O)O)c1",
    "VALUE_OBSERVED": -7.51
  }
]

Recorded inhibition of "Fc1cccc(COc2ccc(Nc3ncnc4sc(-c5cccs5)cc34)cc2Cl)c1" , please.
-0.37

Recorded inhibition of "CCn1c(-c2nonc2N)nc2cncc(C(=O)N3CC[C@H](N)C3)c21" , please.
22.4

Recorded inhibition of "COc1cc2ncn(-c3cc(O[C@H](C)c4ccccc4Cl)c(C(N)=O)s3)c2cc1OC" , please.
21.9

Recorded inhibition of "COc1cc2ncn(-c3cc(OCc4ccccc4Cl)c(C(N)=O)s3)c2cc1OC" , please.
5.86

Recorded inhibition of "CCn1c(-c2nonc2N)nc2c(C#CC(C)(C)O)nc(CN3CCCC3)cc21" , please.
3.25

Recorded inhibition of "[O-][S+]1CCN(Cc2ccc(-c3ccc4ncnc(Nc5ccc(OCc6ccccc6)c(F)c5)c4c3)o2)CC1" , please.
0.63

Recorded inhibition of "CS(=O)(=O)CCNCc1ccc(-c2ccc3ncnc(Nc4ccc(OCc5cccc(F)c5)c(C(F)(F)F)c4)c3c2)o1" , please.
13.3

Recorded inhibition of "CCN1CCC(CC(=O)Nc2n[nH]c3nc(-c4cccs4)c(Br)cc23)CC1" , please.
-3.93

Recorded inhibition of "CN1CCC(C(=O)Nc2n[nH]c3nnc(-c4ccccc4)cc23)CC1" , please.
17.6

Recorded inhibition of "O=C1NC(=O)C(N2CCc3ccccc32)=C1c1ccc(Cl)cc1" , please.
0.25

Recorded inhibition of "Cc1cccc(-c2n[nH]cc2-c2ccc3ncccc3n2)n1" , please.
3.85

Recorded inhibition of "CCCN1CCC(Oc2cc(Nc3nc(Nc4cccc(F)c4C(N)=O)c4cc[nH]c4n3)c(OC)cc2Cl)CC1" , please.
-2.49

Recorded inhibition of "N#Cc1c(NC(=O)c2cccc3ccccc23)sc2c1CCCC2" , please.
3.68

Recorded inhibition of "COc1cc2c(cc1Nc1nc(N3CCc4ccccc43)c3cc[nH]c3n1)N(C(=O)CN(C)C)CC2" , please.
-3.36

Recorded inhibition of "CCn1c(-c2nonc2N)nc2ccncc21" , please.
6.51

Recorded inhibition of "Cc1nn(C)c2cc(N(C)c3ccnc(Nc4cccc(S(N)(=O)=O)c4)n3)ccc12" , please.
54.9

Recorded inhibition of "CC(=O)Nc1cccc(C#Cc2cncnc2Nc2ccc(OCc3cccc(F)c3)c(Cl)c2)n1" , please.
14.8

Recorded inhibition of "CS(=O)(=O)Nc1ccc(N/C=C2\C(=O)Nc3ccccc32)cc1" , please.
5.33
